- measured.on: ORL1 receptor (Homo sapiens, UniProt P41146)
- Construct: expressed in transfected cells; host or cells: CHO (recombinant CHO-ORL1 cells), membranes
- Sequence (P41146 whole entry): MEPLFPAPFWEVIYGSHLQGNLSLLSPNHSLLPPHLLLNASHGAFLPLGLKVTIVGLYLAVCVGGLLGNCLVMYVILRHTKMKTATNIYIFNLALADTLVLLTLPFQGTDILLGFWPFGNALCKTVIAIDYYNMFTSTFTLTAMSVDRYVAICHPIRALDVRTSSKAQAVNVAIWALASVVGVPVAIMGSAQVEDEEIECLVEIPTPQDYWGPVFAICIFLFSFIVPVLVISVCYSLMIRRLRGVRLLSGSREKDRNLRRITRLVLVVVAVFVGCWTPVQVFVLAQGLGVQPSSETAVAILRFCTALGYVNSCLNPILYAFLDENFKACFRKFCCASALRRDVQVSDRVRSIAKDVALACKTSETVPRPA
- experimental.details: ORL1 receptor binding assay with 3H-nociceptin/orphanin FQ (WGA-SPA beads)
- stated.conditions: c=1 μM test substance; 0.5 nM 3H-nociceptin/orphanin FQ; membranes of recombinant CHO-ORL1 cells
measured.attribute: inhibition at 1 µM

| compound | measured.attribute | observed.result |
| --- | --- | --- |
| CN(C)C1(c2ccccc2)CCN(C(=O)CCNC(=O)C2CCCc3c2[nH]c2ccc(Cl)cc32)CC1 (centres unmarked) | inhibition at 1 µM | 63% |
| CCCCC1(N(C)C)CCN(CCN(C)C(=O)CC(c2c[nH]c3ccccc23)C(C)C)CC1 (centres unmarked) | inhibition at 1 µM | 27% |
| CN(CCN1CCC(c2ccccc2)(N(C)C)CC1)C(=O)c1ccc2ccn(C)c2c1 | inhibition at 1 µM | 45% |
| CN(CCCN1CCC(c2ccccc2)(N(C)C)CC1)C(=O)Cc1c[nH]c2cc(F)ccc12 | inhibition at 1 µM | 49% |
| CN(C)C1(c2ccccc2)CCN(C(=O)C2CCCN(C(=O)c3cc4cc(F)ccc4[nH]3)C2)CC1 (centres unmarked) | inhibition at 1 µM | 64% |
| CC(C)C(CC(=O)N(C)CCCN1CCC(c2ccccc2)(N(C)C)CC1)c1c[nH]c2ccccc12 (centres unmarked) | inhibition at 1 µM | 43% |
| Cc1[nH]c2ccccc2c1CNCCC(=O)N1CCC(c2ccccc2)(N(C)C)CC1 | inhibition at 1 µM | 65% |
| CC(CC(=O)N(C)CCCN1CCC(c2cccs2)(N(C)C)CC1)c1c[nH]c2ccccc12 (centres unmarked) | inhibition at 1 µM | 59% |

---

- measured.on: human μ-opiate receptor (Homo sapiens)
- Construct: purchased NEN, Zaventem, Belgium RB-HOM; host or cells: CHO-K1 cells (membrane preparation)
- Sequence (P35372 whole entry): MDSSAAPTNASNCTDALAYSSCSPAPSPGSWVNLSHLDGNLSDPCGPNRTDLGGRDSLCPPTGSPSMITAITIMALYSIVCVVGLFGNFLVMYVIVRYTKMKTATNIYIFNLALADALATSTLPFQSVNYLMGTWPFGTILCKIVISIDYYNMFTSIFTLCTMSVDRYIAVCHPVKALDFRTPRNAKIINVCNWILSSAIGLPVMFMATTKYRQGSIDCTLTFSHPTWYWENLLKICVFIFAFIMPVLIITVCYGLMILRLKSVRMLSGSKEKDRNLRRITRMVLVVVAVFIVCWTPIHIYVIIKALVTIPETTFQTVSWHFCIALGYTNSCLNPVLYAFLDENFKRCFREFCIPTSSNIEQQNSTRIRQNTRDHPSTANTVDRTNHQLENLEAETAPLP
- experimental.details: μ-opiate receptor binding assay with [3H] naloxone (WGA-SPA beads)
- stated.conditions: 1 μmol/l test substance; 1 nmol/l [3H] naloxone; CHO-K1 cell membranes expressing human μ-opiate receptor

| molecule | inhibition at 1 µM (%) |
| --- | --- |
| CN(CCN1CCC(c2ccccc2)(N(C)C)CC1)Cc1c(-c2ccc(F)cc2)[nH]c2ccccc12 [Example 70] | 98 |
| CN(CCCN1CCC(c2cccs2)(N(C)C)CC1)C(=O)CCc1c[nH]c2ccccc12 [Example 21] | 87 |
| CC(C)C(C(=O)N1CCC(c2ccccc2)(N(C)C)CC1)N(C)C(=O)Cc1c[nH]c2cc(F)ccc12 (centres unmarked) [Example 82] | 97 |
| CN(CCCN1CCC(c2ccccc2)(N(C)C)CC1)C(=O)CCc1c[nH]c2ccccc12 [Example 61] | 89 |
| CN(C)C1(c2cccs2)CCN(CCNC(=O)c2ccc3ccn(C)c3c2)CC1 [Example 9] | 101 |
| COc1ccc2[nH]c(C(=O)N(C)CCN3CCC(c4ccccc4)(N4CCCC4)CC3)cc2c1 [Example 64] | 18 |
| CN(CCCN1CCC(c2cccs2)(N(C)C)CC1)C(=O)c1c[nH]c2ccccc12 [Example 11] | 86 |
| CC(C)C(CC(=O)N1CCCC(C(=O)N2CCC(c3ccccc3)(N(C)C)CC2)C1)c1c[nH]c2ccccc12 (centres unmarked) [Example 106] | 92 |

---

- measured.on: ORL1 receptor (Homo sapiens)
- Construct: expressed in transfected cells; host or cells: CHO (recombinant CHO-ORL1 cells), membranes
- experimental.details: ORL1 receptor binding assay with 3H-nociceptin/orphanin FQ (WGA-SPA beads)
- stated.conditions: c=1 μM test substance; 0.5 nM 3H-nociceptin/orphanin FQ; membranes of recombinant CHO-ORL1 cells
In this section we review reported inhibition at 1 µM values for a set of compounds.

| compound | measured.on | inhibition at 1 µM (%) |
| --- | --- | --- |
| CN(C)C1(c2ccccc2)CCN(C(=O)C2CN(Cc3ccc4[nH]ccc4c3)c3ccccc32)CC1 (centres unmarked) | ORL1 receptor (Homo sapiens) | 40 |
| CN(CCN1CCC(c2ccccc2)(N(C)C)CC1)C(=O)Cc1c[nH]c2cc(F)ccc12 | ORL1 receptor (Homo sapiens) | 93 |
| CN(C)C1(c2cccs2)CCN(CCNCc2c[nH]c3ccccc23)CC1 | ORL1 receptor (Homo sapiens) | 97 |
| CN(C)C1(c2cccs2)CCN(C(=O)CNCc2cccc3cc[nH]c23)CC1 | ORL1 receptor (Homo sapiens) | 67 |
| CC(C)c1ccc2c(CN(C)CCCN3CCC(c4cccs4)(N(C)C)CC3)c[nH]c2c1 | ORL1 receptor (Homo sapiens) | 90 |
| CN(C)C1(c2ccccc2)CCN(C(=O)CCNCc2ccc3cc[nH]c3c2)CC1 | ORL1 receptor (Homo sapiens) | 45 |
| CN(C)C1(c2cccs2)CCN(C(=O)CC(NCc2cccc3cc[nH]c23)c2ccccc2)CC1 (centres unmarked) | ORL1 receptor (Homo sapiens) | 74 |
| CN(C)C1(c2ccccc2)CCN(C(=O)C2CN(C(=O)c3ccc4ccn(C)c4c3)c3ccccc32)CC1 (centres unmarked) | ORL1 receptor (Homo sapiens) | 46 |
| CN(C(=O)c1ccc2ccn(C)c2c1)C(C(=O)N1CCC(c2cccs2)(N(C)C)CC1)c1ccccc1 (centres unmarked) | ORL1 receptor (Homo sapiens) | 60 |
| CN(C)C1(c2ccccc2)CCN(C(=O)C2CCCN(Cc3c[nH]c4ccccc34)C2)CC1 (centres unmarked) | ORL1 receptor (Homo sapiens) | 52 |
| CC(C)C(CC(=O)N(C)CCCN1CCC(c2cccs2)(N(C)C)CC1)c1c[nH]c2ccccc12 (centres unmarked) | ORL1 receptor (Homo sapiens) | 53 |
| CN(C)C1(c2ccccc2)CCN(C(=O)C2CCCN(C(=O)Cc3c[nH]c4ccc(Br)cc34)C2)CC1 (centres unmarked) | ORL1 receptor (Homo sapiens) | 53 |
| Cc1c(CN(C)CCN2CCC(c3ccccc3)(N(C)C)CC2)c2ccccc2n1C | ORL1 receptor (Homo sapiens) | 83 |
| CC(CC(=O)N(C)CCN1CCC(c2ccccc2)(N(C)C)CC1)c1c[nH]c2ccccc12 (centres unmarked) | ORL1 receptor (Homo sapiens) | 68 |
| COc1ccc2[nH]cc(CNCCN3CCC(c4cccs4)(N(C)C)CC3)c2c1 | ORL1 receptor (Homo sapiens) | 85 |
| CN(C)C1(c2ccccc2)CCN(C(=O)C2CCCN(Cc3cccc4cc[nH]c34)C2)CC1 (centres unmarked) | ORL1 receptor (Homo sapiens) | 61 |
| CN(C(=O)Cc1c[nH]c2cc(F)ccc12)C(C(=O)N1CCC(c2cccs2)(N(C)C)CC1)c1ccccc1 (centres unmarked) | ORL1 receptor (Homo sapiens) | 82 |
| COc1ccc2c(CN3CCCC(C(=O)N4CCC(c5ccccc5)(N(C)C)CC4)C3)c(C)n(C)c2c1 (centres unmarked) | ORL1 receptor (Homo sapiens) | 53 |
| CN(C(=O)CCc1cn(C)c2ccccc12)C(C(=O)N1CCC(c2cccs2)(N(C)C)CC1)c1ccccc1 (centres unmarked) | ORL1 receptor (Homo sapiens) | 40 |
| CN(C)C1(c2cccs2)CCN(C(=O)CC(NC(=O)c2ccc3ccn(C)c3c2)c2ccccc2)CC1 (centres unmarked) | ORL1 receptor (Homo sapiens) | 68 |
| CC(C)C(CC(=O)N(C)CCN1CCC(c2ccccc2)(N(C)C)CC1)c1c[nH]c2ccccc12 (centres unmarked) | ORL1 receptor (Homo sapiens) | 84 |
| CC(C)C(CC(=O)N(C)C(C(=O)N1CCC(c2cccs2)(N(C)C)CC1)c1ccccc1)c1c[nH]c2ccccc12 (centres unmarked) | ORL1 receptor (Homo sapiens) | 63 |
| CN(C)C1(c2cccs2)CCN(C(=O)CNC(=O)c2cccc3c2ccn3C)CC1 | ORL1 receptor (Homo sapiens) | 27 |
| CCCCC1(N(C)C)CCN(CCN(C)Cc2c[nH]c3ccc(Br)cc23)CC1 | ORL1 receptor (Homo sapiens) | 28 |
| CN(C)C1(c2cccs2)CCN(C(=O)CNC(=O)c2ccc3ccn(C)c3c2)CC1 | ORL1 receptor (Homo sapiens) | 61 |
| CN(C)C1(c2ccccc2)CCN(C(=O)C2CCCN(Cc3c[nH]c4ccc(Br)cc34)C2)CC1 (centres unmarked) | ORL1 receptor (Homo sapiens) | 69 |
| CN(CCCN1CCC(c2cccs2)(N(C)C)CC1)C(=O)c1ccc2ccn(C)c2c1 | ORL1 receptor (Homo sapiens) | 36 |
| CC(C)C(CC(=O)NC(CC(=O)N1CCC(c2cccs2)(N(C)C)CC1)c1ccccc1)c1c[nH]c2ccccc12 (centres unmarked) | ORL1 receptor (Homo sapiens) | 94 |
| CN(CCCN1CCC(c2ccccc2)(N(C)C)CC1)C(=O)c1ccc2cc[nH]c2c1 | ORL1 receptor (Homo sapiens) | 35 |
| CC(C)C(CC(=O)NCCN1CCC(c2cccs2)(N(C)C)CC1)c1c[nH]c2ccccc12 (centres unmarked) | ORL1 receptor (Homo sapiens) | 96 |
| CC(C)c1ccc2c(CNCCN3CCC(c4cccs4)(N(C)C)CC3)c[nH]c2c1 | ORL1 receptor (Homo sapiens) | 97 |
| CN(CCN1CCC(c2ccccc2)(N(C)C)CC1)C(=O)c1ccc2cc[nH]c2c1 | ORL1 receptor (Homo sapiens) | 82 |
